Each recorded value in this set is attributed to patent US11541049B2.

- methodDescription: Pharmacokinetics study in male SD rats, intravenous injection
- Type: in vivo
- cond: male, SD, rat, plasma, rats, 1 mg/kg
assayMetric: half-life (min)
Please respond with the number in min and leave the unit unwritten.

half-life in this record for N[C@@H](CCCCNC(=O)CN1CC=C(c2cccc3c2CCN(C(=O)[C@H]2CC(c4cccc(Cl)c4F)=NO2)[C@@H]3C(=O)Nc2ccc(C(=O)O)cc2)CC1)C(=O)O : 46.8

###

- methodDescription: Pharmacokinetics study in male SD rats, intravenous injection
- Assay type: in vivo
- cond: male, SD, rat, plasma, rats, 1 mg/kg
- Description: Pharmacokinetics characteristics were examined by administering compound of the present disclosure and the reference compound (BMS-962212) to male SD rats through intravenous injection (IV). Blood was collected at various time points after administration. […] The plasma samples were processed to precipitate the proteins and then analyzed by LC-MS/MS. The pharmacokinetic parameters were calculated using WinNonlin 6.3 software by employing a non-compartmental model.
assayMetric: Cmax (ng/mL)
Report only the number, with the unit ng/mL understood.

Reported Cmax of N[C@@H](CCCCNC(=O)CN1CC=C(c2cccc3c2CCN(C(=O)[C@H]2CC(c4cccc(Cl)c4F)=NO2)[C@@H]3C(=O)Nc2ccc(C(=O)O)cc2)CC1)C(=O)O [Example 5] : 2990

###

- methodDescription: Pharmacokinetics study in male rabbits, intravenous injection
- Format: in vivo
- cond: male, rabbit, plasma, 1 mg/kg
Listing: AUC(0-t) of selected compounds
Give the value in ng·h/mL but do not write ng·h/mL after it.

{"compound": "N[C@@H](CCCCNC(=O)CN1CC=C(c2cccc3c2CCN(C(=O)[C@H]2CC(c4cccc(Cl)c4F)=NO2)[C@@H]3C(=O)Nc2ccc(C(=O)O)cc2)CC1)C(=O)O", "unitOfMeasurement": "ng·h/mL", "AUC(0-t)": 5730}

GET /value?item= CN1CCN(c2cccc3c2CCN(C(=O)/C=C/c2c(-n4cnnn4)ccc(Cl)c2F)[C@@H]3C(=O)Nc2ccc(C(=O)O)cc2)C(=O)C1 [BMS-962212, reference compound] &field=AUC(0-t) returns 476

###

- methodDescription: Pharmacokinetics study in male rabbits, intravenous injection
- Format: in vivo
- cond: male, rabbit, plasma, 1 mg/kg
Entries and their half-life
Unit min implied. Number only.

{"compound": "N[C@@H](CCCCNC(=O)CN1CC=C(c2cccc3c2CCN(C(=O)[C@H]2CC(c4cccc(Cl)c4F)=NO2)[C@@H]3C(=O)Nc2ccc(C(=O)O)cc2)CC1)C(=O)O", "half-life [min]": 68.4}

The record that follows has no half-life shown yet.
# half-life of CN1CCN(c2cccc3c2CCN(C(=O)/C=C/c2c(-n4cnnn4)ccc(Cl)c2F)[C@@H]3C(=O)Nc2ccc(C(=O)O)cc2)C(=O)C1 [BMS-962212, reference compound] = 25.8

###

- methodDescription: Pharmacokinetics study in male rabbits, intravenous injection
- Assay type: in vivo
- cond: male, rabbit, plasma, 1 mg/kg
- Procedure: Pharmacokinetics properties were examined by administering compound of the present disclosure and the reference compound (BMS-962212) to male rabbits through intravenous injection (IV). Blood was collected at various time points after administration. The blood was anticoagulated with EDTA-K2. […] The plasma samples were processed to precipitate the proteins and then analyzed by LC-MS/MS. The pharmacokinetic parameters were calculated using WinNonlin 6.3 software by employing a non-compartmental model.
assayMetric: Vd (L/kg)
Express your answer in L/kg, writing the number without its unit.

{"molecule": "N[C@@H](CCCCNC(=O)CN1CC=C(c2cccc3c2CCN(C(=O)[C@H]2CC(c4cccc(Cl)c4F)=NO2)[C@@H]3C(=O)Nc2ccc(C(=O)O)cc2)CC1)C(=O)O [Example 5]", "Vd / L/kg": 0.3}

Item: CN1CCN(c2cccc3c2CCN(C(=O)/C=C/c2c(-n4cnnn4)ccc(Cl)c2F)[C@@H]3C(=O)Nc2ccc(C(=O)O)cc2)C(=O)C1 [BMS-962212, reference compound] | Vd: 1.28
